# procedure-details: Solubility (physiochemical properties)
# Type: physicochemical
# measurement-parameters: solvents in which the compound is soluble
reported-property: Solubility

CCCn1nnc2ccc(NS(=O)(=O)c3ccc([N+](=O)[O-])cc3)cc2c1=O [Compound 12e]	Ethanol, DMSO
CCCn1nnc2ccc(NS(=O)(=O)c3ccc(OC)cc3)cc2c1=O [Compound 12b]	Ethanol, DMSO
CCCCNC(=O)c1cc([N+](=O)[O-])ccc1N [Compound 9b, 2-Amino-5-nitro-N-butylbenzamide]	Ethanol, DMSO
CCCCn1nnc2ccc([N+](=O)[O-])cc2c1=O [Compound 10b]	Ethanol, DMSO
CCCn1nnc2ccc(NS(=O)(=O)c3ccc(Cl)cc3)cc2c1=O [Compound 12c]	Ethanol, DMSO
CCCCn1nnc2ccc(NS(=O)(=O)c3ccc([N+](=O)[O-])cc3)cc2c1=O [Compound 12f]	Ethanol, DMSO
CCCn1nnc2ccc(NS(=O)(=O)c3ccccc3)cc2c1=O [Compound 12a]	Ethanol, DMSO
CCCn1nnc2ccc(N)cc2c1=O [Compound 11a]	Methanol, DMSO

Recorded Solubility for CCCn1nnc2ccc([N+](=O)[O-])cc2c1=O [Compound 10a] , please? Ethanol, DMSO

For CCCn1nnc2ccc(NS(=O)(=O)c3ccc(Br)cc3)cc2c1=O [Compound 12d] , what is its reported Solubility? Ethanol, DMSO

May I ask what Solubility has been recorded for CCCCn1nnc2ccc(N)cc2c1=O [Compound 11b] ? Methanol, DMSO

Can you look up the measured Solubility of CCCNC(=O)c1cc([N+](=O)[O-])ccc1N [Compound 9a, 2-Amino-5-nitro-N-propylbenzamide] for me? Ethanol, DMSO

Cited source for all entries: paper PMC9612054
